B1: WEE1 (parent)
chain: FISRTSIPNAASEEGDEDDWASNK

Variants of: B1
Assay: protein stability index of a GFP-peptide fusion (GPS, HEK-293T) (PSI 1-6); higher = more stable;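 further: lentivirally expressed fusions sorted by FACS into six bins by GFP to DsRed ratio, PSI derived from sequencing read proportions per bin multiplied by bin number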
Conditions: c terminus: a fixed tail appended
Returns 1 if the recorded protein stability index is greater than or equal to 4, and -1 otherwise.

>>> class_assignment("FISRTSIPNAASEEGKEDDWASNK")
-1
>>> class_assignment("FISRTSIPNAASEIGDEDDWASNK")
-1
>>> class_assignment("AISRTSIPNAASEEGDEDDWASNK")
1
>>> class_assignment("FISRTSKPNAASEEGDEDDWASNK")
1
>>> class_assignment("FISRTSIPNAAWEEGDEDDWASNK")
-1
>>> class_assignment("FISTTSIPNAASEEGDEDDWASNK")
1
>>> class_assignment("FISRTSIPNAASEEGDEDNWASNK")
-1
>>> class_assignment("FISRTSIPNAASEEGDMDDWASNK")
-1
>>> class_assignment("FISRTSIPNAASEGGDEDDWASNK")
-1
>>> class_assignment("FISRTSTPNAASEEGDEDDWASNK")
1
>>> class_assignment("FISRTSIPNAGSEEGDEDDWASNK")
1
>>> class_assignment("FISRTSRPNAASEEGDEDDWASNK")
-1
>>> class_assignment("FWSRTSIPNAASEEGDEDDWASNK")
1
>>> class_assignment("FISRTSIPNAFSEEGDEDDWASNK")
-1
>>> class_assignment("DISRTSIPNAASEEGDEDDWASNK")
1
>>> class_assignment("FISRTSIPNAASEEGDEDDWASPK")
-1
>>> class_assignment("FISRTSIPNAAEEEGDEDDWASNK")
1
>>> class_assignment("FISRTSIPNAASEEGDADDWASNK")
-1
>>> class_assignment("FISRLSIPNAASEEGDEDDWASNK")
-1
